target: IDO1 (Homo sapiens); construct: HeLa cells were treated with a test compound in the presence of IFNγ, which induces IDO1 expression; endogenous in cells; experiment: Cell-based (HeLa) assay for measurement of IDO1 inhibition (kynurenine levels in supernatant after IFNγ induction); settings: H1-HeLa cells, IFNγ-induced IDO1, 48 hour incubation, kynurenine absorbance at 480 nm; geometric mean of a minimum of four determinations
Sequence (P14902 whole entry): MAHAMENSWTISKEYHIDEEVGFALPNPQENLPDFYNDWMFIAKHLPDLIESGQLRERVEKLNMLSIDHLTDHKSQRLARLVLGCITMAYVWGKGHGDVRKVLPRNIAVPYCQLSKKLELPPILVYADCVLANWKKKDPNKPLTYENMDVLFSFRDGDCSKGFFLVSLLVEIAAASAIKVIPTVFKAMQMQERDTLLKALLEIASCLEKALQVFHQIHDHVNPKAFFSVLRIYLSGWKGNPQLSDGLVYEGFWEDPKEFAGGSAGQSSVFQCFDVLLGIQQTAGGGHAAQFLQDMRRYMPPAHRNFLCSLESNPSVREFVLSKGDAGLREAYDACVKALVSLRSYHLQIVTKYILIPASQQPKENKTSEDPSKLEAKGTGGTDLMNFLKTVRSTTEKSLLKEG
measurement_name: EC50 (nM)

{"columns": ["structure_notation", "test_value"],
 "data": [
  ["Cc1ncc(-c2cccn3c(-c4cc(F)ccc4F)ncc23)cc1C(=O)Nc1ccc(F)cc1", 39],
  ["[2H]c1c([2H])c(NC(=O)c2cc(-c3cccn4c(-c5cccc(F)c5F)ncc34)cnc2C)c([2H])c([2H])c1F", 23.9],
  ["Cc1ncc(-c2cccn3c(-c4cc(F)ccn4)ncc23)cc1C(=O)Nc1ccc(F)cc1", 112],
  ["NC(=O)c1ccnc(-c2ncc3c(-c4ccc(C(F)(F)F)c(C(=O)Nc5ccc(F)cc5)c4)cccn23)c1", 1330],
  ["O=C(Nc1ccc(F)cc1)c1cc(-c2cccn3c(-c4ccncn4)ncc23)ccc1C(F)(F)F", 66.4],
  ["Cc1ncc(-c2cccn3c(-c4cccc(F)c4F)nc(Cl)c23)cc1C(=O)Nc1ccc(F)cc1", 118],
  ["Cc1cnc(-c2cccn3c(-c4cccc(F)c4F)ncc23)nc1C(=O)Nc1ccc(F)cc1", 399],
  ["Cc1ncc(-c2cccn3c(-c4cccc(F)c4F)ncc23)cc1C(=O)Nc1ccccc1", 15.3],
  ["O=C(Nc1ccc(F)cc1)c1cc(-c2cccn3c(-c4cccc(F)c4F)ncc23)ccc1OC(F)(F)F", 15],
  ["N#Cc1cccnc1-c1ncc2c(-c3ccc(C(F)(F)F)c(C(=O)Nc4ccc(F)cc4)c3)cccn12", 274],
  ["Cc1cc(-c2cnc(C)c(C(=O)Nc3ccc(F)cc3)c2)c2cnc(-c3cccc(F)c3F)n2c1", 895]
]}

====

target: IDO1 (Homo sapiens); construct: HeLa cells were treated with a test compound in the presence of IFNγ, which induces IDO1 expression; endogenous in cells; assay: Cell-based (HeLa) assay for measurement of IDO1 inhibition (kynurenine levels in supernatant after IFNγ induction); details: H1-HeLa cells, IFNγ-induced IDO1, 48 hour incubation, kynurenine absorbance at 480 nm; geometric mean of a minimum of four determinations
pEC50: −log10 of the molar value.
Entries annotated with measured pEC50

{"columns": ["structure_notation", "pEC50"],
 "data": [
  ["O=C(Nc1ccc(F)cc1)c1cccc(-c2cccn3c(-c4cccc(F)c4F)ncc23)n1", 6.68],
  ["Cc1cnc(-c2cccn3c(-c4cccc(F)c4F)ncc23)cc1C(=O)Nc1ccc(F)cc1", 7.07],
  ["Cc1ncc(-c2cccn3c(-c4cccc(F)c4F)ncc23)cc1C(=O)Nc1ccc(F)cc1", 7.77],
  ["Cc1ncc(-c2cccn3c(-c4cccc(F)c4F)ncc23)cc1C(=O)Nc1ccc(OC(F)F)cc1", 7.10],
  ["O=C(Nc1ccc(F)cc1)c1cc(-c2cccn3c(-c4cccc(F)c4F)ncc23)cnc1C(F)(F)F", 7.80],
  ["O=C(Nc1ccc(F)cc1)c1nc(-c2cccn3c(-c4cccc(F)c4F)ncc23)ccc1C(F)(F)F", 7.62],
  ["Cc1ncc(-c2cccn3c(-c4cccc(F)c4F)ncc23)cc1C(=O)Nc1ccc(Cl)cc1F", 7.61]
]}
